Items are presented alongside their recorded pIC50.
Biological target: human Gal-1 (hGal-1) (Homo sapiens, UniProt P09382, C131S/C17S/C43S/C61S/C89S)
Experiment: Competitive binding assay: biotinylated hGal-1 binding to microplate-adsorbed asialofetuin (ASF)
Conditions: IC50 values from several measurements given as geomean
Scale: pIC50 equals -log10([C]), with [C] in mol/L.

COMPOUND | TESTED_SYSTEM | pIC50
CO[C@@H]1[C@@H](n2cc(-c3ccc(Br)c(F)c3F)nn2)[C@@H](O)[C@@H](CO)O[C@@H]1Cn1cc(C2(C)CC2)nn1 [Ex 4.2.23.] | human Gal-1 (hGal-1) (Homo sapiens, UniProt P09382, C131S/C17S/C43S/C61S/C89S) | 5.61

Name the reported pIC50 value associated with the compound CO[C@@H]1[C@@H](n2cc(-c3ccc(Br)c(F)c3F)nn2)[C@@H](O)[C@@H](CO)O[C@@H]1Cn1cc(C2(CO)CC2)nn1 [Ex 4.2.4.]
5.33

Likewise for CO[C@@H]1[C@@H](n2cc(-c3ccc(Br)c(F)c3F)nn2)[C@@H](O)[C@@H](CO)O[C@@H]1Cn1cc(C2(C)COC2)nn1 [Ex 4.2.6.] ?
5.60

Likewise for CO[C@@H]1[C@@H](n2cc(-c3ccc(Cl)c(F)c3F)nn2)[C@@H](O)[C@@H](CO)O[C@@H]1Cc1cn([C@@H]2CCC[C@H]2F)nn1 (relative stereo) [Example 2.1.79.CD] ?
5.46

Likewise for CO[C@@H]1[C@@H](n2cc(-c3ccc(Cl)c(F)c3F)nn2)[C@@H](O)[C@@H](CO)O[C@@H]1Cn1cc(C23CC(C2)C3)nn1 [Ex 2.2.12.] ?
5.47

Likewise for CO[C@@H]1[C@@H](n2cc(-c3ccc(Cl)c(F)c3F)nn2)[C@@H](O)[C@@H](CO)O[C@@H]1Cn1cc(C2(O)CC(F)(F)C2)nn1 [Ex 2.2.85.] ?
5.27

Likewise for CO[C@@H]1[C@@H](n2cc(-c3ccc(Br)c(F)c3F)nn2)[C@@H](O)[C@@H](CO)O[C@@H]1Cn1cc(C23CCC(N)(CC2)CC3)nn1 [Ex 4.2.39.] ?
5.66

Likewise for CO[C@@H]1[C@@H](n2cc(-c3ccc(Cl)c(F)c3F)nn2)[C@@H](O)[C@@H](CO)O[C@@H]1Cc1cn([C@@H]2CC[C@H]2F)nn1 (single isomer, unassigned) [Example 2.1.88.D] ?
5.64
